EXPERIMENT_NOTES: log D, octanol/water
Assay type: physicochemical
ASSAY_SETUP: pH 7.4, octanol/water system
PARAMETER_MEASURED: logD

Exercise: Returns the measured logD for the input molecule. Input: C[C@@H](OC[C@@]1(c2ccccc2)CC[C@](C#N)(n2cn[nH]c2=O)CN1)c1cc(C(F)(F)F)cc(C(F)(F)F)c1
Key: 4.5
